System: THP-1 macrophages infected with Mycobacterium tuberculosis H37Rv
Test: intracellular M.tb growth inhibition relative to DMSO (0) and 4 uM bedaquiline (100); higher = stronger inhibition of intracellular bacterial growth
Settings: 10 µM; 4 days
measurementType: intracellular M.tb growth inhibition (%)
Report the value in % with no unit label.

Illustrative cases are given below, each with its answer.
| compound | unitSpec | quantitativeResult |
| --- | --- | --- |
| CC[C@@H]1/C=C(\C)C[C@H](C)C[C@H](OC)[C@H]2O[C@@](O)(C(=O)C(=O)N3CCCC[C@H]3C(=O)O[C@H](/C(C)=C/[C@@H]3CC[C@H](Cl)[C@H](OC)C3)[C@H](C)[C@@H](O)CC1=O)[C@H](C)C[C@@H]2OC [Pimecrolimus] | % | 45.4 |
| Nc1nccc(-c2c(-c3ccc(F)cc3)ncn2C2CCCCC2)n1 | % | 42.4 |
| COc1cc(Nc2ncc3c(n2)-c2ccc(Cl)cc2C(c2c(F)cccc2OC)=NC3)ccc1C(=O)O | % | -73.6 |

Jot down intracellular M.tb growth inhibition (THP-1 macrophages infected with Mycobacterium tuberculosis H37Rv) of Fc1ccc(Cl)cc1-c1nc(Nc2ccncc2)c2nccnc2n1 .
36.5

System THP-1 macrophages infected with Mycobacterium tuberculosis H37Rv. Read-out intracellular M.tb growth inhibition. Item CO[C@@H](C(=O)N1Cc2[nH]nc(NC(=O)c3ccc(N4CCN(C)CC4)cc3)c2C1)c1ccccc1 . Report value.
-228

Provide the reported intracellular M.tb growth inhibition (system: THP-1 macrophages infected with Mycobacterium tuberculosis H37Rv) for CCN(CCO)CCCOc1ccc2c(Nc3cc(CC(=O)Nc4cccc(F)c4)[nH]n3)ncnc2c1
-51.3

Name the value of intracellular M.tb growth inhibition reported for FC(F)c1nc2ccccc2n1-c1nc(N2CCOCC2)nc(N2CCOCC2)n1 when tested on THP-1 macrophages infected with Mycobacterium tuberculosis H37Rv.
-26.3

Look up and report measured intracellular M.tb growth inhibition (THP-1 macrophages infected with Mycobacterium tuberculosis H37Rv) for the following compound: NC(=O)Nc1sc(-c2ccc(F)cc2)cc1C(N)=O
-19
